Target: UniProt:P33981
Assay: Measurement of inhibition of MPS1 kinase (Caliper EZ reader, fluorescent labelled peptide H236)
Format: biochemical
Conditions: full length MPS1 12.5 nM or 3 nM, peptide H236 5 μM, ATP 10 μM, 60 min at room temperature
Reported IC50 values follow for various compounds
measuredMetric: IC50 (nM)

- compound: "COc1cc(-c2cnc(C)n2C)ccc1Nc1cc2cc(-c3cnn(CC(C)O)c3)ccc2cn1 (racemic) [Example 38]"
  measuredMetric: "IC50"
  quantitativeResult: 2
- compound: "COCCNC(=O)c1ccc(Nc2cc3cc(-c4cnn(CC(C)(C)O)c4)ccc3cn2)c(OC)c1"
  measuredMetric: "IC50"
  quantitativeResult: 3
- compound: "COCCn1cc(-c2ccc3cnc(Nc4ccc(C(=O)N5CC(OC)C5)cc4OC)cc3c2)cn1"
  measuredMetric: "IC50"
  quantitativeResult: 3
- compound: "COCc1ncc(-c2ccc(Nc3cc4cc(-c5cnn(CC(C)(C)O)c5)ccc4cn3)c(OC)c2)n1C"
  measuredMetric: "IC50"
  quantitativeResult: 1

====

# maps each entry to its IC50
Molecular target: full length MPS1 (Homo sapiens (Human), UniProt P33981)
Sequence (P33981 whole entry): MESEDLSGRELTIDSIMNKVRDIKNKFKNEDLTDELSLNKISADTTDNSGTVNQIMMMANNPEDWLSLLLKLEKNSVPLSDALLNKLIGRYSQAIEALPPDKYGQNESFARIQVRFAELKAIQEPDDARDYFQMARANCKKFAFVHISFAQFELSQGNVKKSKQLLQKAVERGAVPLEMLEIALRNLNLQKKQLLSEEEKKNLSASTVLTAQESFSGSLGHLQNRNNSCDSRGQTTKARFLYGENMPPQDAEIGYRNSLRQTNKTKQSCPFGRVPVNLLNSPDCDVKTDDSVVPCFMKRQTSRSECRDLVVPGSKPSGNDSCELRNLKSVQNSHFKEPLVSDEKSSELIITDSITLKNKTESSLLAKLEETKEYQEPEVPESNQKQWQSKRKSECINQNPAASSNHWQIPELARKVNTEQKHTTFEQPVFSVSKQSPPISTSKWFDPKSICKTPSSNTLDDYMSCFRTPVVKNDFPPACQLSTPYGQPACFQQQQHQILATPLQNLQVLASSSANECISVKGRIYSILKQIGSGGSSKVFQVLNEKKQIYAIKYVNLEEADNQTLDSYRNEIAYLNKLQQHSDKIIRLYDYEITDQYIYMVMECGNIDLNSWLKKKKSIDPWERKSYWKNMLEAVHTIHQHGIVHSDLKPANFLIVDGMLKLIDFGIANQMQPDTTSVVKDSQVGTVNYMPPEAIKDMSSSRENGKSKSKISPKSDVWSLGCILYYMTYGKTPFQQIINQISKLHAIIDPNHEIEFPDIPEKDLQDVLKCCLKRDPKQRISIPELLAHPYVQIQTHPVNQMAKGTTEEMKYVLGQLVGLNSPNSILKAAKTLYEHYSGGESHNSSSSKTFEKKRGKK
Experiment: Measurement of inhibition of MPS1 kinase (Caliper EZ reader, fluorescent labelled peptide H236)
Format: biochemical
Details: full length MPS1 12.5 nM or 3 nM, peptide H236 5 μM, ATP 10 μM, 60 min at room temperature
measuredMetric: IC50 (nM)

- compound: "COc1cc(-c2cnc(C)n2C)ccc1Nc1cc2cc(-c3ccncc3)ccc2cn1"
  system: "full length MPS1 (Homo sapiens (Human), UniProt P33981)"
  quantityUnit: "nM"
  quantitativeResult: 145
- compound: "COc1cc(-c2cnc(C)n2C)ccc1Nc1cc2cc(-c3cnc(C)n3C)ccc2cn1"
  system: "full length MPS1 (Homo sapiens (Human), UniProt P33981)"
  quantityUnit: "nM"
  quantitativeResult: 5
- compound: "CCOc1cc(-c2nncn2C)ccc1Nc1cc2nc(-c3cnn(CC(C)(C)O)c3)ccc2cn1"
  system: "full length MPS1 (Homo sapiens (Human), UniProt P33981)"
  quantityUnit: "nM"
  quantitativeResult: 1
- compound: "CCOc1cc(-c2nncn2C)ccc1Nc1cc2cc(-c3cnn(CC4(O)CCC4)c3)ccc2cn1"
  system: "full length MPS1 (Homo sapiens (Human), UniProt P33981)"
  quantityUnit: "nM"
  quantitativeResult: 7
- compound: "COc1cc(C(=O)NCCO)ccc1Nc1cc2cc(-c3cnn(CC(C)(C)O)c3)ccc2cn1"
  system: "full length MPS1 (Homo sapiens (Human), UniProt P33981)"
  quantityUnit: "nM"
  quantitativeResult: 2
- compound: "Cc1nnc(-c2ccc(Nc3cc4cc(-c5cnn(CC(C)(C)O)c5)ccc4cn3)c(Cl)c2)o1"
  system: "full length MPS1 (Homo sapiens (Human), UniProt P33981)"
  quantityUnit: "nM"
  quantitativeResult: 23
- compound: "CC(C)(O)Cn1cc(-c2ccc3cnc(Nc4ccc(N5CCOCC5)cc4Cl)cc3c2)cn1"
  system: "full length MPS1 (Homo sapiens (Human), UniProt P33981)"
  quantityUnit: "nM"
  quantitativeResult: 45
- compound: "COc1cc(-c2cnn(C)c2)ccc1Nc1cc2nc(-c3cnn(CC(C)(C)O)c3)ccc2cn1"
  system: "full length MPS1 (Homo sapiens (Human), UniProt P33981)"
  quantityUnit: "nM"
  quantitativeResult: 3
- compound: "Cc1ncc(-c2ccc(Nc3cc4cc(-c5cnn(CC(C)(C)O)c5)ccc4cn3)c(Cl)c2)n1C"
  system: "full length MPS1 (Homo sapiens (Human), UniProt P33981)"
  quantityUnit: "nM"
  quantitativeResult: 3
- compound: "COCCn1cc(-c2ccc3cnc(Nc4ccc(-c5cnc(C)n5C)cc4OC)cc3c2)cn1"
  system: "full length MPS1 (Homo sapiens (Human), UniProt P33981)"
  quantityUnit: "nM"
  quantitativeResult: 20
- compound: "COc1cc(C(=O)N2CC(OC)C2)ccc1Nc1cc2cc(-c3cnn(CC(O)C(F)(F)F)c3)ccc2cn1 (racemic)"
  system: "full length MPS1 (Homo sapiens (Human), UniProt P33981)"
  quantityUnit: "nM"
  quantitativeResult: 3
- compound: "COc1cc(-c2cnn(C)c2CO)ccc1Nc1cc2cc(-c3cnn(CC(C)(C)O)c3)ccc2cn1"
  system: "full length MPS1 (Homo sapiens (Human), UniProt P33981)"
  quantityUnit: "nM"
  quantitativeResult: 3
- compound: "COc1cc(-c2nncn2C)ccc1Nc1cc2cc(-c3cnn(CC(C)(C)O)c3)ccc2cn1"
  system: "full length MPS1 (Homo sapiens (Human), UniProt P33981)"
  quantityUnit: "nM"
  quantitativeResult: 1
- compound: "COc1cc(-c2cnc(C)n2C)ccc1Nc1cc2cc(-c3cncnc3)ccc2cn1"
  system: "full length MPS1 (Homo sapiens (Human), UniProt P33981)"
  quantityUnit: "nM"
  quantitativeResult: 14
- compound: "COc1cc(C(=O)N2CC(OC)C2)ccc1Nc1cc2cc(-c3cnn(C)c3)ccc2cn1"
  system: "full length MPS1 (Homo sapiens (Human), UniProt P33981)"
  quantityUnit: "nM"
  quantitativeResult: 2
- compound: "COc1cc(C(=O)N2CC(OC)C2)ccc1Nc1cc2nc(-c3cnn(CC(C)(C)O)c3)ccc2cn1"
  system: "full length MPS1 (Homo sapiens (Human), UniProt P33981)"
  quantityUnit: "nM"
  quantitativeResult: 2
- compound: "COCC(Cn1cc(-c2ccc3cnc(Nc4ccc(C(=O)N5CC(OC)C5)cc4OC)cc3c2)cn1)OC (racemic)"
  system: "full length MPS1 (Homo sapiens (Human), UniProt P33981)"
  quantityUnit: "nM"
  quantitativeResult: 9
- compound: "COc1cc(-c2cnc(C)n2C)ccc1Nc1cc2cc(-c3cnn(C)c3CO)ccc2cn1"
  system: "full length MPS1 (Homo sapiens (Human), UniProt P33981)"
  quantityUnit: "nM"
  quantitativeResult: 3
